Experiment: recombinant UMI read abundance after kanamycin selection (control-corrected) (log10(CPM+1)); higher = more efficient recombination; extreme values may be limits of the assay; sequences stand for … in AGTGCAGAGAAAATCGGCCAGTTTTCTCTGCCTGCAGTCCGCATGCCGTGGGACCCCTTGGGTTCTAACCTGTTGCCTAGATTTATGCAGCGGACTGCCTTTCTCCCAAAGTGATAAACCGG…AGGTTGGTTTCACT; site = the 11-nt donor;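 also: IS621 bridge recombinase in Escherichia coli cells against a fixed T5 target plasmid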
Threshold rule: recombinant UMI read abundance (log10) greater than or equal to 2 is Met; below that, Not met.

Task: Determine whether measured recombinant UMI read abundance (log10) meets or exceeds 2 for ACCGTAACATGGACCGGTTTTCCCGGTAATCCGTATTTGCA (site ACCGTAACTTG)
Output: Met

Task: Determine whether measured recombinant UMI read abundance (log10) meets or exceeds 2 for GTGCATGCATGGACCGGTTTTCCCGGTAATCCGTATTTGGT (site GTGCATCCTAC)
Output: Not met

Task: Determine whether measured recombinant UMI read abundance (log10) meets or exceeds 2 for TAAAGTCCATGGACCGGTTTTCCCGGTAATCCGTATTTGTC (site TAAAGTCCTAA)
Output: Not met

Task: Determine whether measured recombinant UMI read abundance (log10) meets or exceeds 2 for GTCGGGGCATGGACCGGTTTTCCCGGTAATCCGTATTTGTT (site GTCGGGGCTAA)
Output: Not met

Task: Determine whether measured recombinant UMI read abundance (log10) meets or exceeds 2 for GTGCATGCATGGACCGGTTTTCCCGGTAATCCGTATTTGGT (site GTGTATGCTAC)
Output: Not met
